Biological target: human Lck enzyme (Homo sapiens, UniProt P06239)
Construct: purchased Carna Biosciences, Inc. 08-170
Sequence (P06239 whole entry): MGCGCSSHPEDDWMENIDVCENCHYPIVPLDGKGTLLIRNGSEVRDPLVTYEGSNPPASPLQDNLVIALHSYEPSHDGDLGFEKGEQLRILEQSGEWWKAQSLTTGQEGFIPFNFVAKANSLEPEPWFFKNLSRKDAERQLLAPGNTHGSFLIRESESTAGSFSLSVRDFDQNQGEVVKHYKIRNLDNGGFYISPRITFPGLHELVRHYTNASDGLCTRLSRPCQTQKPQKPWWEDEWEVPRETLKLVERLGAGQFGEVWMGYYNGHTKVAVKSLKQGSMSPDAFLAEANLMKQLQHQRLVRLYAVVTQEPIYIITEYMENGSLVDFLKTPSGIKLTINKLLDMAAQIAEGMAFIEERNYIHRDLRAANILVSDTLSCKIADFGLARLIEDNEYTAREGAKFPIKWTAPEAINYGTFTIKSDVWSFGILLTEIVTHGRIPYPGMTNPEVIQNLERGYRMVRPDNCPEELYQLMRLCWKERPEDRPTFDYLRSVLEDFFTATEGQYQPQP
Assay: Lck enzyme inhibitory activity (time-resolved fluorometry, biotinylated peptide phosphorylation)
Assay type: biochemical
Conditions: read-out: LCK_IC50
pIC50: −log10 of the molar value.
As shown below, each of these compounds has a reported pIC50 value.
MEASUREMENT_TYPE: pIC50

[[record]]
compound = "Cc1cc2cc(C(=O)c3cnn(-c4ccc(Oc5ccccc5F)cc4C)c3N)[nH]c2cc1N1C(=O)NC2(CCN(Cc3ccccc3)C2)C1=O (stereo not drawn)"
measurement_type = "pIC50"
reported_value = 7.68

[[record]]
compound = "Cc1cc(Oc2ccccc2F)ccc1-n1ncc(C(=O)c2cc3cc(OCC(F)F)c(N4C(=O)NC5(CCN(Cc6ccccc6)CC5)C4=O)cc3[nH]2)c1N"
measurement_type = "pIC50"
reported_value = 7.92

[[record]]
compound = "Cc1cc(Oc2ccccc2F)ccc1-n1ncc(C(=O)c2cc3cc(OC4CCN(C(C)C)CC4)c(NS(C)(=O)=O)cc3[nH]2)c1N"
measurement_type = "pIC50"
reported_value = 8.82

[[record]]
compound = "Cc1cc(Oc2c(F)cccc2F)ncc1-n1ncc(C(=O)c2cc3cc(F)c(N4C(=O)NC5(CC5)C4=O)cc3[nH]2)c1N"
measurement_type = "pIC50"
reported_value = 8.14

[[record]]
compound = "Cc1cc(Oc2ccccc2F)ncc1-n1ncc(C(=O)c2cc3cc(F)c(N4C(=O)NC(C)(C)C4=O)cc3[nH]2)c1N"
measurement_type = "pIC50"
reported_value = 7.96

[[record]]
compound = "Cc1cc(Oc2cc(Cl)ccc2Cl)ncc1-n1ncc(C(=O)c2cc3cc(F)c(NS(C)(=O)=O)cc3[nH]2)c1N"
measurement_type = "pIC50"
reported_value = 7.03

